Biological target: human ether-à-go-go-related gene (hERG) potassium channel (human)
Experiment: primary screen, population patch clamp on CHO cells stably expressing hERG; higher = less effect of the substance
In all, about 310,000 compounds went through this assay and about 2,200 (0.71%) showed an effect of 50% or more. Effects have a minus sign here. This is one part of a sample in which strong results are shown more often than they occur.
measured metric: hERG current change (%, negative = inhibition) at 1uM
Form entry: enter the amount, then its unit.

The following compounds have reported results that may help.
compound: Cc1cc(C)cc(OCC(=O)Nc2ccc3c(c2)OCCO3)c1
value: 15.5%
//
compound: Cc1cc(Cl)cc(Br)c1OCCCCn1cncn1
value: -0.515%

Bench note, human ether-à-go-go-related gene (hERG) potassium channel (human): entry CCCNC(=O)C(Cc1ccc(F)cc1)NC(=O)c1ccc(C#N)cc1 (stereo not shown) , its hERG current change (%, negative = inhibition) at 1uM = -17.5%

GET /values?item= COc1cc(NC(=O)CCS(=O)(=O)c2ccc3nc(C)sc3c2)cc(OC)c1OC &system= human ether-à-go-go-related gene (hERG) potassium channel (human) returns hERG current change (%, negative = inhibition) at 1uM: 15.8%

Considering O=C(OCC(=O)N1CCCC1)c1c2c(nc3ccccc13)CCCCC2 , its hERG current change (%, negative = inhibition) at 1uM with human ether-à-go-go-related gene (hERG) potassium channel (human) was recorded as 9.48%

Log: human ether-à-go-go-related gene (hERG) potassium channel (human), compound Cc1nc2ccc([N+](=O)[O-])cc2c(=O)n1Cc1ccc([N+](=O)[O-])cc1 , hERG current change (%, negative = inhibition) at 1uM = -76.5%

Observed hERG current change (%, negative = inhibition) at 1uM, human ether-à-go-go-related gene (hERG) potassium channel (human), COc1ccc(CC(=O)OCC(=O)N2CCCc3ccccc32)cc1 : 7.67%

The compound COc1ccc(N(C(=O)Cc2cccs2)C(C(=O)NC2CCCCC2)c2cccn2C)cc1 (stereo not shown) on human ether-à-go-go-related gene (hERG) potassium channel (human): hERG current change (%, negative = inhibition) at 1uM was 9.18%

human ether-à-go-go-related gene (hERG) potassium channel (human) hERG current change (%, negative = inhibition) at 1uM of CN1CCN(c2ccc([N+](=O)[O-])cc2NC(=O)c2cccs2)CC1 is -14.2%

Here COc1ccc(Cn2c(C)nc3ccc([N+](=O)[O-])cc3c2=O)cc1 was tested on human ether-à-go-go-related gene (hERG) potassium channel (human), and its hERG current change (%, negative = inhibition) at 1uM came to 5.96%

Noted hERG current change (%, negative = inhibition) at 1uM for O=C(Nc1ccc2oc(-c3ccccc3F)nc2c1)c1ccc2c(c1)OCCO2 , tested on human ether-à-go-go-related gene (hERG) potassium channel (human): 3.14%

Observed hERG current change (%, negative = inhibition) at 1uM on human ether-à-go-go-related gene (hERG) potassium channel (human), entry CCn1c(CNC(=O)c2ccc(OC)c(OC)c2)nnc1SCC(=O)Nc1ccc(OC)cc1 , equals 6.99%

###

Molecular target: human ether-à-go-go-related gene (hERG) potassium channel (human, UniProt Q12809)
Sequence (Q12809 whole entry, looked up): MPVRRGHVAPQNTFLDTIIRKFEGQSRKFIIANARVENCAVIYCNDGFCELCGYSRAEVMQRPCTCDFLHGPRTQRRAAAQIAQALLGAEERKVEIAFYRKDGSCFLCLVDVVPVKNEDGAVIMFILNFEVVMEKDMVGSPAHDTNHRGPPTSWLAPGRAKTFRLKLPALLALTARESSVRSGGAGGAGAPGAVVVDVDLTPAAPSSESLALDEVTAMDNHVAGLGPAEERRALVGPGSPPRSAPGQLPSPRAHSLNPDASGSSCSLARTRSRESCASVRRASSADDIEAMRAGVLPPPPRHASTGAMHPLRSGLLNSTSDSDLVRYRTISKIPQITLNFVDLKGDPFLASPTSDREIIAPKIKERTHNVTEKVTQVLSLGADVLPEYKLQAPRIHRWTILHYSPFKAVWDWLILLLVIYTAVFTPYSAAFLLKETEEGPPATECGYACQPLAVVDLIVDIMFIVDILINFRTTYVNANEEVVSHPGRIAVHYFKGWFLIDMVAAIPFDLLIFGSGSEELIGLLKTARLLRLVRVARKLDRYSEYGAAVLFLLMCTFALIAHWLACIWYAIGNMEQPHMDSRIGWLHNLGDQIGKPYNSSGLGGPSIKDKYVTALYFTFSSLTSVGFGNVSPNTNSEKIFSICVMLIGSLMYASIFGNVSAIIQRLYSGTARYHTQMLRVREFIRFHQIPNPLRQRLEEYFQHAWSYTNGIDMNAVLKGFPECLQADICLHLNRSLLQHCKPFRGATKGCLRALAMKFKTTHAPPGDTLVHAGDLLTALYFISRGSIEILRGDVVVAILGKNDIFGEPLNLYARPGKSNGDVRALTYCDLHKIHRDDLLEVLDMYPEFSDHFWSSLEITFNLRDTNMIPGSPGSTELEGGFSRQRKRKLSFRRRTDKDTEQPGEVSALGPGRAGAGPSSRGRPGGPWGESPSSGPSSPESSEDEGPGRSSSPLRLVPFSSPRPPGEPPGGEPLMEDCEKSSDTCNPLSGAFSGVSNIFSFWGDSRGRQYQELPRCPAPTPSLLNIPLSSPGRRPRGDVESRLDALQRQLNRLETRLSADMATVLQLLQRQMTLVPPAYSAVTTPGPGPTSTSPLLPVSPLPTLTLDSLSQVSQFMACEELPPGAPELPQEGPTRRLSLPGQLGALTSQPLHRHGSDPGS
Test: primary screen, population patch clamp on CHO cells stably expressing hERG; higher = less effect of the substance
Text: Briefly, Chinese hamster ovary (CHO) cells stably expressing the hERG channel were dislodged from tissue culture flasks and dispensed into PPC plates. […] Small molecule effects on hERG current density were quantified by […].
Among all 310,000 compounds or so, about 2,200 (0.71%) showed an effect of 50% or more. The effect is printed as a negative number. This excerpt belongs to a sample that is enriched for strong results.
Measured hERG current change (%, negative = inhibition) at 1uM of individual entries
Kindly provide the numeric value in % only, without the unit symbol.

// below: answered compounds
compound: CC(C)Oc1ccc(Nc2ncnc3ccccc23)cc1.Cl
value: 3.47

compound: O=C(CN1CCN(S(=O)(=O)c2ccccc2)CC1)Nc1ccccc1C(=O)NC1CC1
value: 1.22

Please fill in: hERG current change (%, negative = inhibition) at 1uM reported for NC(=O)c1nsc(C(=O)N(CC(=O)NCc2ccco2)c2ccccc2F)c1N = 1.03

Entry O=C1c2ccccc2C(=O)N1CCn1ccnc1 ; hERG current change (%, negative = inhibition) at 1uM = 17.7
